# MEASUREMENT TARGET: T1, wild type human CD47 (Acro Biosystems, cat. no. CD7-H5227) (human, UniProt Q08722 19-139)
# T1 construct: Bought protein used as SPR analyte; also called Human CD47 wt; wild-type CD47
# T1 sequence (Q08722 19-139 limits assumed): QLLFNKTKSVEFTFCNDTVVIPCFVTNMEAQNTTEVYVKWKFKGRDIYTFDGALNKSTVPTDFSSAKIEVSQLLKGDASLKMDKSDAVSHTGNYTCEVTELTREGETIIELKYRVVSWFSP
# RUN DESCRIPTION: SPR, IgG captured, CD47 in flow; exp 3;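 also: other target is a CD47 mutein carrying C33G, used to obtain true monovalent affinity, with kon and koff fitted from SPR binding curves and KD derived from both rates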
QUANTITY: kon (M⁻¹ s⁻¹)
Just the number please, in M⁻¹ s⁻¹, no unit attached.

## Task Can you look up the measured kon of 108VH10.Mg / 108VL10.Me (antibody, V domains shown, 4D5-framework series; constant regions not restated for this series; also called VH10.Mg VL10.Me) VH: EVQLVESGGGLVQPGGSLRLSCAASGFTFSHHWIHWVRQAPGKGLEWVAMIDASDSETRLSQKFKDRFTISADTSKNTAYLQMNSLRAEDTAVYYCSRLGRYYFDYWGQGTLVTVSS VL: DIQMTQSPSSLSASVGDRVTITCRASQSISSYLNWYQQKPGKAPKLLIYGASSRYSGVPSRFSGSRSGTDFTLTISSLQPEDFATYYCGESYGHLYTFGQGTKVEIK for me?
## Result 680000
